- Measurement notes: Inhibition of yeast alpha glucosidase after 30 mins
- Set-up: species or system Saccharomyces cerevisiae
IC50 strictly under 100 µM means Met; at 100 µM or over means Not met.

Example entries begin here.
> print(dat)
                                smiles.input  classification
 1  C[C@@]12CC[C@@H]3[C@@](CC[C@H]4[C@@]3(C)CCC[C@@]4(C)C(=O)O)(C[C@@H]1N)C2         Not met
 2  CCOC(=O)[C@]1(C)CCC[C@@]2(C)[C@@H]3CC[C@@]4(C)C[C@]3(CC[C@@H]21)c1c4[nH]c2ccccc12             Met
 3  CC(C)(C)OC(=O)[C@]1(C)CCC[C@@]2(C)[C@@H]3CC[C@@]4(C)C[C@]3(CC[C@@H]21)[C@H](CO)[C@H]4O         Not met
 4  C[C@@]12CC[C@@H]3[C@@](CC[C@H]4[C@@]3(C)CCC[C@@]4(C)C(=O)O)(C[C@H]1O)C2         Not met
 5  C=CC(=O)O[C@@H]1C[C@]23CC[C@H]4[C@@](C)(CCC[C@@]4(C)C(=O)OCC)[C@@H]2CC[C@@]1(C)C3         Not met
 6  C[C@]12CC[C@H]3[C@]4(C)CCC[C@@](C)(C(=O)OCc5ccccc5)[C@H]4CC[C@@]3(C1)[C@H](CO)[C@H]2O         Not met
 7  C[C@]12CC[C@H]3[C@]4(C)CCC[C@@](C)(C(=O)OCCO)[C@H]4CC[C@@]3(C1)[C@H](CO)[C@H]2O         Not met
 8  CCOC(=O)[C@]1(C)CCC[C@@]2(C)[C@@H]3CC[C@@]4(C)C[C@]3(CC[C@@H]21)CC(=O)O4         Not met
 9  CCOC(=O)[C@]1(C)CCC[C@@]2(C)[C@@H]3CC[C@@]4(C)C[C@]3(CC[C@@H]21)[C@H](COC(=O)c1ccccc1)[C@H]4O         Not met
10  CC(C)CCOC(=O)[C@]1(C)CCC[C@@]2(C)[C@@H]3CC[C@@]4(C)C[C@]3(CC[C@@H]21)[C@H](CO)[C@H]4O         Not met

API: query returns whether the compound falls strictly under 100 µM in IC50. Query: `CCCCOC(=O)[C@]1(C)CCC[C@@]2(C)[C@@H]3CC[C@@]4(C)C[C@]3(CC[C@@H]21)[C@H](CO)[C@H]4O`
Met

API: query returns whether the compound falls strictly under 100 µM in IC50. Query: `CCOC(=O)[C@]1(C)CCC[C@@]2(C)[C@@H]3CC[C@@]4(C)C[C@]3(CC[C@@H]21)[C@H](CO)C4=O`
Not met

API: query returns whether the compound falls strictly under 100 µM in IC50. Query: `CCOC(=O)[C@]1(C)CCC[C@@]2(C)[C@@H]3CC[C@@]4(C)C[C@]3(CC[C@@H]21)[C@H](COC(C)=O)[C@H]4O`
Not met

---

For each entry below, report its IC50 value.
- Measurement notes: Inhibition of yeast alpha glucosidase after 30 mins
- Parameters: species or system Saccharomyces cerevisiae

// batch mode: one IC50 value per listed entry
1. CCOC(=O)[C@]1(C)CCC[C@@]2(C)[C@@H]3CC[C@@]4(C)C[C@]3(CC[C@@H]21)CC4=O
2. C[C@@]12CC[C@@H]3[C@@](CC[C@H]4[C@@]3(C)CCC[C@@]4(C)C(=O)O)(C/C1=N/O)C2
3. CCOC(=O)[C@]1(C)CCC[C@@]2(C)[C@@H]3CC[C@@]4(C)C[C@]3(CC[C@@H]21)[C@H](COC(C)=O)C4=O
4. CC(C)OC(=O)[C@]1(C)CCC[C@@]2(C)[C@@H]3CC[C@@]4(C)C[C@]3(CC[C@@H]21)[C@H](CO)[C@H]4O
5. CCOC(=O)[C@]1(C)CCC[C@@]2(C)[C@@H]3CC[C@@]4(C)C[C@]3(CC[C@@H]21)C[C@@H]4N
6. C=C1C(=O)[C@@]2(C)CC[C@@H]3[C@]1(CC[C@H]1[C@@]3(C)CCC[C@@]1(C)C(=O)OCC)C2
7. C[C@]12CC[C@H]3[C@]4(C)CCC[C@@](C)(C(=O)O)[C@H]4CC[C@@]3(C1)[C@H](CO)[C@H]2O

1. > 200 µM
2. 92.1 µM
3. > 200 µM
4. 97.2 µM
5. 91.2 µM
6. > 200 µM
7. 149 µM

// batch mode: one IC50 value per listed entry
1. CCOC(=O)[C@]1(C)CCC[C@@]2(C)[C@@H]3CC[C@@]4(C)C[C@]3(CC[C@@H]21)[C@H](CO)[C@H]4O
2. C[C@@]12CC[C@@H]3[C@@](CC[C@H]4[C@@]3(C)CCC[C@@]4(C)C(=O)O)(CC1=O)C2 [ISOSTEVIOL]

1: 86.2 µM; 2: > 200 µM

---

- Measurement notes: Inhibition of yeast alpha glucosidase after 30 mins
- Set-up: species or system Saccharomyces cerevisiae
For each entry below, report its IC50 value.

> print(dat)
                                   compound  reported
1  CCOC(=O)[C@]1(C)CCC[C@@]2(C)[C@@H]3CC[C@@]4(C)C[C@]3(CC[C@@H]21)C/C4=N\O   88.9 µM
2  C[C@@]12CC[C@@H]3[C@@](CC[C@H]4[C@@]3(C)CCC[C@@]4(C)C(=O)O)(CC(=O)N1)C2 [ISOSTEVIOL LACTAM]   81.6 µM
3  C[C@@]12CC[C@@H]3[C@@](CC[C@H]4[C@@]3(C)CCC[C@@]4(C)C(=O)O)(CC(=O)O1)C2    139 µM

Below: the item to evaluate.
Quote IC50 reported for `CCOC(=O)[C@]1(C)CCC[C@@]2(C)[C@@H]3CC[C@@]4(C)C[C@]3(CC[C@@H]21)[C@H](COC(=O)c1ccccc1)C4=O` please.
> 200 µM

---

For each entry below, report its pIC50 value.
- Measurement notes: Inhibition of yeast alpha glucosidase after 30 mins
- Parameters: species or system Saccharomyces cerevisiae
Numbers only, as −log10 of the molar value.

Worked cases, pIC50 given:
> print(dat)
                               smiles.input  reported
1  CCN[C@H]1C[C@]23CC[C@H]4[C@@](C)(CCC[C@@]4(C)C(=O)OCC)[C@@H]2CC[C@@]1(C)C3      3.94
2  COC(=O)[C@]1(C)CCC[C@@]2(C)[C@@H]3CC[C@@]4(C)C[C@]3(CC[C@@H]21)[C@H](CO)[C@H]4O      4.02
3  CCOC(=O)[C@]1(C)CCC[C@@]2(C)[C@@H]3CC[C@@]4(C)C[C@]3(CC[C@@H]21)C[C@H]4O      3.88

// batch mode: one pIC50 value per listed entry
1. C[C@]12CC[C@@H]3[C@](CC[C@H]4[C@@]3(C)CCC[C@@]4(C)C(=O)O)(C1)c1c2[nH]c2ccccc12
2. C=CCOC(=O)[C@]1(C)CCC[C@@]2(C)[C@@H]3CC[C@@]4(C)C[C@]3(CC[C@@H]21)[C@H](CO)[C@H]4O
3. CCOC(=O)[C@]1(C)CCC[C@@]2(C)[C@@H]3CC[C@@]4(C)C[C@]3(CC[C@@H]21)CC(=O)N4
4. CCCOC(=O)[C@]1(C)CCC[C@@]2(C)[C@@H]3CC[C@@]4(C)C[C@]3(CC[C@@H]21)[C@H](CO)[C@H]4O

1: 4.08; 2: 3.84; 3: 4.14; 4: 4.07

Taken from ChEMBL document CHEMBL1152716.
